- Experiment Description: Volume of distribution at steady state in mouse at 1 mg/kg, iv and 2 mg/kg, po
- Format: ADME, organism-based
- Applied Conditions: in vivo, read-out: Vdss
Property Name: Vd (L/kg)
Field format: number, assumed L/kg, no unit text.

The compound identified as O=C(CCc1cnn(-c2ccc(O)cn2)c1)NC1=C(C(=O)O)CCCC1 registered its Vd at 0.4

The compound identified as Cc1c(CC(C)C(=O)NC2=C(C(=O)O)CCCC2)cnn1-c1ccc(O)cc1 (stereo not drawn) registered its Vd at 0.68

The compound identified as O=C(CCc1cnn(-c2ccc(O)cc2)c1)Nc1ccccc1C(=O)O registered its Vd at 3.56

* * *

- Experiment Description: Volume of distribution at steady state in rat at 1 mg/kg, iv and 2 mg/kg, po
- Format: ADME, organism-based
- Applied Conditions: in vivo, read-out: Vdss
Property Name: Vd (L/kg)
Field format: number, assumed L/kg, no unit text.

The compound identified as CC(Cc1ccn(-c2ccc(O)cn2)n1)C(=O)NC1=C(C(=O)O)CCC(c2cccc(F)c2F)C1 (configuration not stated) registered its Vd at 0.36

The compound identified as CC(Cc1ccn(-c2ccc(O)cn2)n1)C(=O)NC1=C(C(=O)O)CC(c2cc(F)cc(F)c2)CC1 (configuration not stated) registered its Vd at 0.53

* * *

- Target: Hydroxycarboxylic acid receptor 2 (Homo sapiens)
- Experiment Description: Serum shift in 3H-niacin binding to GPR109A receptor with 4% human serum
Please provide measured serum shift for the entries that follow.
Answer field: number only, no words.

The compound identified as O=C(CCc1ccn(-c2ccc(O)cn2)n1)NC1=C(C(=O)O)CCCC1 registered its serum shift at 1000

The compound identified as CC(Cc1ccn(-c2ccc(O)cn2)n1)C(=O)NC1=C(C(=O)O)CC(c2cc(F)cc(F)c2)CC1 (stereo not given) registered its serum shift at 100

The compound identified as CC(Cc1ccn(-c2ccc(O)cn2)n1)C(=O)NC1=C(C(=O)O)CCC(c2cccc(F)c2F)C1 (stereo not given) registered its serum shift at 30

The compound identified as O=C(CCc1cnn(-c2ccc(O)cc2)c1)Nc1ccccc1C(=O)O registered its serum shift at 70

The compound identified as O=C(CCc1ccn(-c2ccc(O)cn2)n1)Nc1ccccc1C(=O)O registered its serum shift at 170

* * *

Please provide measured serum shift for the entries that follow.
- Target: Hydroxycarboxylic acid receptor 2 (Homo sapiens) (UniProt Q8TDS4)
- Sequence (Q8TDS4 whole entry): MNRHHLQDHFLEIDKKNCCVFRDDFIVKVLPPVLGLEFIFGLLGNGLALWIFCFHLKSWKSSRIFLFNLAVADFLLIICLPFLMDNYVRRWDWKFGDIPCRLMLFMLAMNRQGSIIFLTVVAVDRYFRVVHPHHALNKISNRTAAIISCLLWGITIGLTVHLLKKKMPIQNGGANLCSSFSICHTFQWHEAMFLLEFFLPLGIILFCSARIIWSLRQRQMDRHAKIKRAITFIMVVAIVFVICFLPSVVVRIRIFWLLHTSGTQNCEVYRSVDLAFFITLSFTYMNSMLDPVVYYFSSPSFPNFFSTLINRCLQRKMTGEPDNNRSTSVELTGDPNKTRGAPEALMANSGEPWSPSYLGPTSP
- Experiment Description: Serum shift in 3H-niacin binding to GPR109A receptor with 4% human serum
Answer field: number only, no words.

The compound identified as CC(Cc1ccn(-c2ccc(O)cn2)n1)C(=O)NC1=C(C(=O)O)CCCC1 (stereo unspecified) registered its serum shift at 900

The compound identified as O=C(CCc1cnn(-c2ccc(O)cn2)c1)NC1=C(C(=O)O)CCCC1 registered its serum shift at 240

The compound identified as CCCC1CCC(C(=O)O)=C(NC(=O)C(C)Cc2ccn(-c3ccc(O)cn3)n2)C1 (stereo unspecified) registered its serum shift at 110

The compound identified as CC(Cc1ccn(-c2ccc(O)cn2)n1)C(=O)Nc1ccccc1C(=O)O (stereo unspecified) registered its serum shift at 200

The compound identified as CC(Cc1ccn(-c2ccc(O)cn2)n1)C(=O)NC1=C(C(=O)O)CCC(c2cccc(F)c2)C1 (stereo unspecified) registered its serum shift at 40
